All figures here come from patent US20230416224A1.

# Method notes: Particle size distribution of ORZY-05 by static automated imaging (Morphologi 4)
# Type: physicochemical
# Condition parameters: ORZY-05 particles
Label y for high-side Number Length D90 (at or above 30 μm) and n for low-side Number Length D90 (below it).

Does the compound O=C(O)CC(O)(CC(=O)O)C(=O)O.[O-][n+]1cccc(/C(Cl)=N/OC[C@H](O)CN2CCCCC2)c1 [compound 1004, arimoclomol citrate] have recorded Number Length D90 that is 30 μm or more?
n

Does the compound O=C(O)CC(O)(CC(=O)O)C(=O)O.[O-][n+]1cccc(/C(Cl)=N/OC[C@H](O)CN2CCCCC2)c1 [17-003, arimoclomol citrate] have recorded Number Length D90 that is 30 μm or more?
n

Does the compound O=C(O)CC(O)(CC(=O)O)C(=O)O.[O-][n+]1cccc(/C(Cl)=N/OC[C@H](O)CN2CCCCC2)c1 [18-004, arimoclomol citrate] have recorded Number Length D90 that is 30 μm or more?
y

Does the compound O=C(O)CC(O)(CC(=O)O)C(=O)O.[O-][n+]1cccc(/C(Cl)=N/OC[C@H](O)CN2CCCCC2)c1 [compound 1003, arimoclomol citrate] have recorded Number Length D90 that is 30 μm or more?
n

Does the compound O=C(O)CC(O)(CC(=O)O)C(=O)O.[O-][n+]1cccc(/C(Cl)=N/OC[C@H](O)CN2CCCCC2)c1 [compound 1001, arimoclomol citrate] have recorded Number Length D90 that is 30 μm or more?
n

Does the compound O=C(O)CC(O)(CC(=O)O)C(=O)O.[O-][n+]1cccc(/C(Cl)=N/OC[C@H](O)CN2CCCCC2)c1 [18-001, arimoclomol citrate] have recorded Number Length D90 that is 30 μm or more?
n

Does the compound O=C(O)CC(O)(CC(=O)O)C(=O)O.[O-][n+]1cccc(/C(Cl)=N/OC[C@H](O)CN2CCCCC2)c1 [17-001, arimoclomol citrate] have recorded Number Length D90 that is 30 μm or more?
n

Does the compound O=C(O)CC(O)(CC(=O)O)C(=O)O.[O-][n+]1cccc(/C(Cl)=N/OC[C@H](O)CN2CCCCC2)c1 [compound 1002, arimoclomol citrate] have recorded Number Length D90 that is 30 μm or more?
n

Does the compound O=C(O)CC(O)(CC(=O)O)C(=O)O.[O-][n+]1cccc(/C(Cl)=N/OC[C@H](O)CN2CCCCC2)c1 [17-004, arimoclomol citrate] have recorded Number Length D90 that is 30 μm or more?
y
